ASSAY: NCI Yeast Anticancer Drug Screen. Data for the mec2-1 strain (AID 157)
MEASUREMENT_CONDITIONS: S. cerevisiae mec2-1 strain, at 50.0 µM, hits give high values
About 79,000 compounds went through this panel and 15% of them were active in at least one assay; those are over-represented in the sample as a whole.
Consider the following molecules; for each one, report its growth inhibition.
The response must be a number in % with no trailing unit.

// growth inhibition lookup, key: `CCCCCCCCCCCCCCCC(=O)Nc1ccc(C(=O)C[n+]2ccc3c(NC(=O)CCC(=O)OC)cccc3c2)cc1`
-12.2

Given the molecule CC(NCCOc1ccccc1)c1ccccc1 (stereo unspecified) , what is its reported growth inhibition?
33.4

Quick check: growth inhibition of CCCCCC(=O)C(C)C1(C(=O)OC)NC(=S)NC(=O)C1C#N (stereo unspecified) ?
14.8

If you can, please state the reported growth inhibition value of `NC(=O)C[n+]1cccc(C(=O)Nc2ccc(Cl)cc2)c1` .
9.3

So what does the record say about growth inhibition for `COc1ccccc1C(=O)C(CN(C)C)CN(C)C` ?
-19.2

For the molecule shown here, `O=C(N=Nc1c(O)[nH]c2c(Cl)cc(Cl)cc12)C(=O)Nc1cccc(C(F)(F)F)c1` , give the reported growth inhibition.
-14

// lookup growth inhibition for CC(=O)OC1C(C)OC(n2cnc3c(=O)[nH]cnc32)C(OC(C)=O)C1OC(C)=O (stereo unspecified)
9.25

What does the data say about its growth inhibition? Entry: `NC(=O)c1nc2ccccc2nc1Nc1ccc(Cl)cc1Cl`
10.2

Reported growth inhibition for `CC(C)S(=O)(=O)c1s[nH]c(=O)c1-c1ccccc1` : what is it?
-0.1

What growth inhibition value was documented for this molecule, C=C1OC(C2CCCCC2)=C(C(=O)OCC)C1C (stereo unspecified) ?
-17.2

Can you look up the measured growth inhibition of `OCc1ccccc1` for me?
19.2

Item under review: `CCOC(=O)Nc1nc2ccccc2n1CN1CCCCC1` . Reported growth inhibition?
11.1

Recorded growth inhibition for CCOC(=O)C1CCCCC1C(=O)OCC (stereo unspecified) , please?
-15.8

# query: growth inhibition of entry CCC(=O)O[C@@H]1C2C(OC(C)=O)C34COC(C)([C@@H]3C3C(C[C@]3(C)OC(C)=O)[C@@H](OC(=O)c3ccccc3)C4=O)[C@H](OC(C)=O)[C@@]2(OC(C)=O)C[C@@H]1C (stereo partly specified)
-6.65

Fill in: growth inhibition of `O=[N+]([O-])c1ccc(S(=O)(=O)Nc2c([N+](=O)[O-])cc([N+](=O)[O-])c3ccccc23)cc1` is ___
-3.9

Could you tell me which growth inhibition is on file for `c1ccc(O[Si](Oc2ccccc2)(Oc2ccccc2)Oc2ccccc2)cc1` ?
-18.7

Using the record for `[O-][n+]1onc2c1/C(=N/O)CCC2` , report its growth inhibition.
4.6

Form field: reported growth inhibition of `CCCCCC(=O)N1SC(NC(=O)OC)=Nc2ccccc21`
47.5

Requested read-out: growth inhibition. Entry: `O=C(CCc1cc(O)cc(O)c1)NCCc1cc(O)cc(O)c1`
5.9

Looking for the measured growth inhibition of `NC(=O)c1ccccc1[N+](=O)[O-]` , can you help?
-7

# get_value(readout='growth inhibition', item= `N#CCCn1nc(SC2CCCCC2)c(=O)[nH]c1=O` )
1.95

For the molecule O=C(O)C(O)c1cccc([N+](=O)[O-])c1 (stereo unspecified) , what growth inhibition is on record?
11.7

Given `O=C1C(Br)=C(c2ccccc2)C(c2ccccc2)=C1c1ccccc1` , state its recorded growth inhibition.
25.9

Reported growth inhibition, molecule `CCOC(=O)/C(=C/c1ccc(N(C)C)cc1)N(CC)CC` : ____
-10.2

Looking for the measured growth inhibition of `N#CC(C#N)=CNC(=S)Nc1ccc(Cl)c(Cl)c1` , can you help?
39.7

I would be grateful if you could share the reported growth inhibition for Clc1nc(Cl)c2ncn(C3CCCO3)c2n1 (stereo unspecified) .
-10

# query: growth inhibition of entry `Cc1cccc(C)c1NC(=O)Nc1ccc(C(=O)O)cc1`
31.7

Quick one: growth inhibition of `COc1ccc(-c2cc(=O)c3c(O)c(OC)c(O)c(OC)c3o2)cc1OC` ?
-37.5

Give its growth inhibition value. Item: CC1N(N2C(=O)CS(=O)(=O)C2C)C(=O)CS1(=O)=O (stereo unspecified)
-3.95

Quick check: growth inhibition of `Nc1nnc(CCCCCCCc2nnc(N)o2)o1` ?
12.6

Look up growth inhibition: `CC1=CC(=O)C(=CN2C(=O)/C(=C\c3cccnc3)NC2=S)C(=O)O1`
-12.2
